Reported IC50 values for a set of compounds
Subject Of Test: FGFR1 (h) (Homo sapiens)
Sequence (P11362 22-822): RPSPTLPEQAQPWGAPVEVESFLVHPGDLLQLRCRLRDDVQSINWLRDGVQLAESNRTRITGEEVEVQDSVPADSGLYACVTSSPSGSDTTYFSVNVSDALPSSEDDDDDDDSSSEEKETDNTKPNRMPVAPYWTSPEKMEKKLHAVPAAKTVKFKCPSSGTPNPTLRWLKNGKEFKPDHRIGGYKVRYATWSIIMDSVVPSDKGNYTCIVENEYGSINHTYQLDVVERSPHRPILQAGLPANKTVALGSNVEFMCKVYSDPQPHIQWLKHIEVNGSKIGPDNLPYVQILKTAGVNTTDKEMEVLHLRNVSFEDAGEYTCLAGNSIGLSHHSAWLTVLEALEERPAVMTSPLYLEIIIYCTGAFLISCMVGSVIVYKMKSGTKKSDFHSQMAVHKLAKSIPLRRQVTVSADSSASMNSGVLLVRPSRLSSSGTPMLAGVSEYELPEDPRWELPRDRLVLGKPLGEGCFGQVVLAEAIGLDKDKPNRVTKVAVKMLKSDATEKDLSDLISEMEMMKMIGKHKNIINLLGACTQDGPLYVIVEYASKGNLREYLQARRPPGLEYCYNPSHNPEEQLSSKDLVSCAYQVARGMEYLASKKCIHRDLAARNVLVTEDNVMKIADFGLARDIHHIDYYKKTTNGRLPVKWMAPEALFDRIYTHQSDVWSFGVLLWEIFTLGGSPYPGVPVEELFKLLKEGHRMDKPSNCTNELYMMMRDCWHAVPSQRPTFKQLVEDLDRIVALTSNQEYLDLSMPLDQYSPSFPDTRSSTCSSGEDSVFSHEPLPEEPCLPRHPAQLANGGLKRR
Assay Procedure: FGFR1 (enzymatic assay), TR-FRET
Assay type: biochemical
Test Parameters: read-out: FGFR 1 pIC50 (converted)
Procedure: In a final reaction volume of 30 μL, FGFR1 (h) (25 ng/ml) was incubated with 50 mM HEPES pH 7.5, 6 mM MnCl2, 1 mM DTT, 0.1 mM Na3VO4, 0.01% Triton-X-100, 500 nM Btn-Flt3 and 5 μM ATP in the presence of compound (1% DMSO final). […] Time-Resolved Fluorescence Resonance Energy Transfer (TR-FRET) signal (ex340 nm. Em 620 nm, em 655 nm) was measured afterwards and results are expressed in RFU (Relative Fluorescence Units).
State the answer as a number, implicitly in nM.

Compound: COc1cc(OC)cc(N(CCNC(C)C)c2ccc3ncc(C(=O)NCCCN4CCCCC4)nc3c2)c1
Observed Result: 19.5

Let us move to another entry and its IC50.
Entry "COc1cc(OC)cc(N(CCN2CCN(C(C)=O)CC2)c2ccc3ncc(-c4ccc(N)nc4)nc3c2)c1" has what IC50?
25.7
